- TEST_TARGET: recombinant cohesin (CipA of Clostridium josui, BAA32429) (Clostridium josui)
- TEST: SPR (Biacore T-100), same format, 5 mM EGTA in running buffer
Ends that are not written are not given here.
METRIC_NAME: Kd (nM)
Give the quantity in nM, number only.

Quick check: Kd of recombinant JNK3 of which an I49V-substituted dockerin polypeptide is fused at the N-terminal (protein, not shown: large carriers; small tags and cut ends) MGLKGDVNNDGAIDALDIAALKKAILTQSTSNINLTNADMNNDGNIDAVDFAQLKVKLLN ? 8.1

Quick check: Kd of recombinant JNK3 of which a wild-type dockerin was fused at the N-terminal (protein, not shown: large carriers; small tags and cut ends, not fully specified (C-terminus)) MGLKGDVNNDGAIDALDIAALKKAILTQSTSNINLTNADMNNDGNIDAIDFAQLKVKLLN ? 3.9

Quick check: Kd of recombinant JNK3 of which an I49G-substituted dockerin polypeptide is fused at the N-terminal (protein, not shown: large carriers; small tags and cut ends) MGLKGDVNNDGAIDALDIAALKKAILTQSTSNINLTNADMNNDGNIDAGDFAQLKVKLLN ? 170

Quick check: Kd of recombinant JNK3 of which an I49T-substituted dockerin polypeptide is fused at the N-terminal (protein, not shown: large carriers; small tags and cut ends) MGLKGDVNNDGAIDALDIAALKKAILTQSTSNINLTNADMNNDGNIDATDFAQLKVKLLN ? 19

Entry source: patent US20100204445A1
